target: human IL-6 (human, UniProt P05231 30-212); test: SPR Biacore, supernatant, Protein A capture, 37 C
Sequence (P05231 30-212 limits assumed): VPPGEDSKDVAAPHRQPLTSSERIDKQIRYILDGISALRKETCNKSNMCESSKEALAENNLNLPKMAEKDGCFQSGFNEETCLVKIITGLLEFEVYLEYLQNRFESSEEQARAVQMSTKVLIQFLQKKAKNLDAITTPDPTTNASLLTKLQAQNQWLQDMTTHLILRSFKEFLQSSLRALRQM
Recorded koff split into classes bucket 1 (below 0.0007 s⁻¹), bucket 2 (0.0007 s⁻¹ to below 0.001 s⁻¹), bucket 3 (0.001 s⁻¹ or more)

[ask] Returns: class label. Input: Anti-IL-6 antibody, heavy chain S35H, G66D, Q99I / light chain M32L, M50D, N52S, M88Q (antibody, IgG1, V domains shown, IgG1; variable domains only; VL is variant III) VH: EVQLVESGGGLVQPGGSLRLSCAASGFTFSPFAMHWVRQAPGKGLEWVAKISPGGSWTYYSDTVTDRFTFSLDTSKSTAYLQMNSLRAEDTAVYYCARILWGYYALDIWGQGTLVTVSS VL: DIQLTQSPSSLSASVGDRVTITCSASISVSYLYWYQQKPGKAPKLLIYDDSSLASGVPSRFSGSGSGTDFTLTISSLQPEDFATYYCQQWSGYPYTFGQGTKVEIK
[reply] bucket 1

[ask] Band for Anti-IL-6 antibody, heavy chain S35H, G66D, L100T / light chain M32L, M50D, N52S, M88Q (antibody, IgG1, V domains shown, IgG1; variable domains only; VL is variant III) VH: EVQLVESGGGLVQPGGSLRLSCAASGFTFSPFAMHWVRQAPGKGLEWVAKISPGGSWTYYSDTVTDRFTFSLDTSKSTAYLQMNSLRAEDTAVYYCARQTWGYYALDIWGQGTLVTVSS VL: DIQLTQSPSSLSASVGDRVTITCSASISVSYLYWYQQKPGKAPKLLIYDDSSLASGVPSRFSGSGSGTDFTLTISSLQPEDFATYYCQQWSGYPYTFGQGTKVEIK ?
[reply] bucket 3

[ask] Determine which band this binder sits in: Anti-IL-6 antibody, heavy chain S35H, G66D, Q99T / light chain M32L, M50D, N52S, M88Q (antibody, IgG1, V domains shown, IgG1; variable domains only; VL is variant III) VH: EVQLVESGGGLVQPGGSLRLSCAASGFTFSPFAMHWVRQAPGKGLEWVAKISPGGSWTYYSDTVTDRFTFSLDTSKSTAYLQMNSLRAEDTAVYYCARTLWGYYALDIWGQGTLVTVSS VL: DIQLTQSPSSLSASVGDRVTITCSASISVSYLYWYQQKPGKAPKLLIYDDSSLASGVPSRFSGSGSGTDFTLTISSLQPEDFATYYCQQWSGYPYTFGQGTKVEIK
[reply] bucket 3

[ask] For this binder, which bin applies? Anti-IL-6 antibody, heavy chain S35H, G66D, Q99L / light chain WT (antibody, IgG1, V domains shown, IgG1; variable domains only) VH: EVQLVESGGGLVQPGGSLRLSCAASGFTFSPFAMHWVRQAPGKGLEWVAKISPGGSWTYYSDTVTDRFTFSLDTSKSTAYLQMNSLRAEDTAVYYCARLLWGYYALDIWGQGTLVTVSS VL: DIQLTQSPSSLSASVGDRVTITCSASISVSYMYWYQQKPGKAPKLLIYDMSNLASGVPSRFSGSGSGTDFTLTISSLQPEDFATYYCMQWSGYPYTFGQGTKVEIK
[reply] bucket 1

[ask] Which bin should I file Anti-IL-6 antibody, heavy chain S35H, G66D, L100G / light chain WT (antibody, IgG1, V domains shown, IgG1; variable domains only) VH: EVQLVESGGGLVQPGGSLRLSCAASGFTFSPFAMHWVRQAPGKGLEWVAKISPGGSWTYYSDTVTDRFTFSLDTSKSTAYLQMNSLRAEDTAVYYCARQGWGYYALDIWGQGTLVTVSS VL: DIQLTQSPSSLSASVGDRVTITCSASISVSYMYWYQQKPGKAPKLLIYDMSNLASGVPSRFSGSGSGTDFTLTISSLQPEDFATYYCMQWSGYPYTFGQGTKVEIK under?
[reply] bucket 2

[ask] Lab note: which band did Anti-IL-6 antibody, heavy chain S35H, G66D, L100T / light chain WT (antibody, IgG1, V domains shown, IgG1; variable domains only) VH: EVQLVESGGGLVQPGGSLRLSCAASGFTFSPFAMHWVRQAPGKGLEWVAKISPGGSWTYYSDTVTDRFTFSLDTSKSTAYLQMNSLRAEDTAVYYCARQTWGYYALDIWGQGTLVTVSS VL: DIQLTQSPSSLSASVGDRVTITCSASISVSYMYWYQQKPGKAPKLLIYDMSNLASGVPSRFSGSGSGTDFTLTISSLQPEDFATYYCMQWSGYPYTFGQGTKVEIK land in?
[reply] bucket 2

[ask] Into which category would you place Anti-IL-6 antibody, heavy chain S35H, G66D, L100Y / light chain WT (antibody, IgG1, V domains shown, IgG1; variable domains only) VH: EVQLVESGGGLVQPGGSLRLSCAASGFTFSPFAMHWVRQAPGKGLEWVAKISPGGSWTYYSDTVTDRFTFSLDTSKSTAYLQMNSLRAEDTAVYYCARQYWGYYALDIWGQGTLVTVSS VL: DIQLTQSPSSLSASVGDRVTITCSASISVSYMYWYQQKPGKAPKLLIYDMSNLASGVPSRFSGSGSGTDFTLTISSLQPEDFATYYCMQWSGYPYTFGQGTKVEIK ?
[reply] bucket 1

[ask] Any idea which band Anti-IL-6 antibody, heavy chain S35H, G66D, Q99T / light chain WT (antibody, IgG1, V domains shown, IgG1; variable domains only) VH: EVQLVESGGGLVQPGGSLRLSCAASGFTFSPFAMHWVRQAPGKGLEWVAKISPGGSWTYYSDTVTDRFTFSLDTSKSTAYLQMNSLRAEDTAVYYCARTLWGYYALDIWGQGTLVTVSS VL: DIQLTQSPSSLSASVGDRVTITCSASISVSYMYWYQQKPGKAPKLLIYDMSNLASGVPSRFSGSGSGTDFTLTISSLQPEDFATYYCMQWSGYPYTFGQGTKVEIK is in?
[reply] bucket 3

[ask] Bin? Anti-IL-6 antibody, heavy chain S35H, G66D, L100Y / light chain M32L, M50D, N52S, M88Q (antibody, IgG1, V domains shown, IgG1; variable domains only; VL is variant III) VH: EVQLVESGGGLVQPGGSLRLSCAASGFTFSPFAMHWVRQAPGKGLEWVAKISPGGSWTYYSDTVTDRFTFSLDTSKSTAYLQMNSLRAEDTAVYYCARQYWGYYALDIWGQGTLVTVSS VL: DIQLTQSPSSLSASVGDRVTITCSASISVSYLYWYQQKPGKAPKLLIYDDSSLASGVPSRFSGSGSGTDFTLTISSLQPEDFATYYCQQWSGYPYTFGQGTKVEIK
[reply] bucket 2

[ask] Assign a bin to Anti-IL-6 antibody, heavy chain S35H, G66D, Q99L / light chain M32L, M50D, N52S, M88Q (antibody, IgG1, V domains shown, IgG1; variable domains only; VL is variant III) VH: EVQLVESGGGLVQPGGSLRLSCAASGFTFSPFAMHWVRQAPGKGLEWVAKISPGGSWTYYSDTVTDRFTFSLDTSKSTAYLQMNSLRAEDTAVYYCARLLWGYYALDIWGQGTLVTVSS VL: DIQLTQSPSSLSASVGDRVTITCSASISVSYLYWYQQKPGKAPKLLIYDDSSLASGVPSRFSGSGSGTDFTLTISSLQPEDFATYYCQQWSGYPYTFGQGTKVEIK
[reply] bucket 2
